# System: Tau phosphorylation at Ser396 (pSer396)
# ASSAY DETAILS: Tau phosphorylation assay (pSer396 ELISA / western blot) in SH-SY5Y cells;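 note: EC50 for reduction of Tau pSer396 in lysed cells, measured by colorimetric ELISA or chemiluminescent western blot, both using the same pSer396 antibody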
# Format: cell-based, human
# CONDITION DETAILS: Homo sapiens; SH-SY5Y cells, overnight (16-18 h) exposure; read-out: pSer396 Tau EC50
OUTCOME MEASURE: pEC50
Numbers only, as −log10 of the molar value.

Reference set (3 entries):
[
  {
    "MOLECULE": "Cn1cc(-c2cc3cc(NC(=O)C4CCNCC4)ncc3cc2Cl)cn1",
    "MEASUREMENT": 5.38
  },
  {
    "MOLECULE": "CN1CCCC(C(=O)Nc2cc3cc(-c4cnn(C)c4)ccc3cn2)CC1 (stereo not shown)",
    "MEASUREMENT": 6.60
  },
  {
    "MOLECULE": "CN1CCC(C(=O)Nc2cc3cc(-c4cnsc4)ccc3cn2)CC1",
    "MEASUREMENT": 6.06
  }
]

Batch request: pEC50 per item, same order as input.
1. CN1CCN(CC(=O)Nc2cc3cc(-c4cnco4)ccc3cn2)CC1
2. Cc1ncc(-c2ccc3cnc(NC(=O)CCN4CCOCC4)cc3c2)o1
3. Cn1cc(-c2ccc3cnc(NC(=O)CN4C[C@H]5C[C@@H]4CO5)cc3c2)cn1
4. C[C@H](C(=O)Nc1cc2cc(-c3cnn(C)c3)ccc2cn1)N1CCCC1
5. Cc1ncc(-c2ccc3cnc(NC(=O)CN4CCOCC4)cc3c2)o1

[5.82, 6.16, 5.74, 7.14, 6.14]

So the reported pEC50 for Cn1ncc(-c2ccc3cnc(NC(=O)C(C)(C)F)cc3c2)c1CN1CCCCC1 , on Tau phosphorylation at Ser396 (pSer396), turned out to be 5.66
